systemUnderTest: GST-Bcl-2 (Homo sapiens)
Sequence (P10415 whole entry): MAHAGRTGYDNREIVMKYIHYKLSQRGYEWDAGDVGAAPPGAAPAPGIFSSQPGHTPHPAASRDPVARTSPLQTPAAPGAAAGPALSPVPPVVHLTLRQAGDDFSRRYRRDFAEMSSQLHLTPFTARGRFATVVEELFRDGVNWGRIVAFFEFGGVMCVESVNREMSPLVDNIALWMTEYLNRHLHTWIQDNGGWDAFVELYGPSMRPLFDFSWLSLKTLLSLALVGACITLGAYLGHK
protocolNotes: TR-FRET binding assay, GST-Bcl-2 with F-Bak peptide probe
measurementConditions: TR-FRET Binding Affinity, GST-Bcl-2, F-Bak peptide probe
Method: Tb-anti-GST antibody was purchased from Invitrogen (Catalog No. PV4216). […] The samples were then mixed on a shaker for 1 minute and incubated for an additional 3 hours at room temperature. […] Fluorescence was measured on the ENVISION plate reader (Perkin Elmer) using a 340/35 nm excitation filter and 520/525 (F-Bak peptide) and 495/510 nm (Tb-labeled […] antibody) emission filters. […]
pKi: −log10 of the molar value.
assayReadout: pKi

* CC1(C)CCC(CN2CCN(c3ccc(C(=O)NS(=O)(=O)c4ccc(NN5CCOCC5)c([N+](=O)[O-])c4)c(Oc4cccc5[nH]ccc45)c3)CC2)=C(c2ccc(Cl)cc2)C1 | 8.52
* CC1(C)CCC(CN2CCN(c3ccc(C(=O)NS(=O)(=O)c4ccc(NCC5COCCO5)c([N+](=O)[O-])c4)c(Oc4ccc5[nH]ccc5c4)c3)CC2)=C(c2ccc(Cl)cc2)C1 (stereo not drawn) | 9.98
* CC1(C)CCC(CN2CCN(c3ccc(C(=O)NS(=O)(=O)c4cnc(OCC5(F)CCOCC5)c(C(F)(F)F)c4)c(Oc4cccc5[nH]ncc45)c3)CC2)=C(c2ccc(Cl)cc2)C1 | 10.26

* * *

systemUnderTest: GST-Bcl-XL (Homo sapiens)
Sequence (Q07817 whole entry): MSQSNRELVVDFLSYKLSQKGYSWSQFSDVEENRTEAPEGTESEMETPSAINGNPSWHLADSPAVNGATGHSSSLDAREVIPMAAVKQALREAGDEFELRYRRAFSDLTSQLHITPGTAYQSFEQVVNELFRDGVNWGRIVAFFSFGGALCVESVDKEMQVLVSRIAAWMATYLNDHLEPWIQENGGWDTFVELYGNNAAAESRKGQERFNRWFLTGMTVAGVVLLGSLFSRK
protocolNotes: TR-FRET binding assay, GST-Bcl-XL with F-Bak peptide probe
measurementConditions: TR-FRET Binding Affinity, GST-Bcl-XL, F-Bak peptide probe
The entries below are paired with their reported Ki.
assayReadout: Ki (nM)

• CC1(C)CCC(CN2CCN(c3ccc(C(=O)NS(=O)(=O)c4ccc(NCCCn5ccnc5)c([N+](=O)[O-])c4)c(Oc4ccc5[nH]ccc5c4)c3)CC2)=C(c2ccc(Cl)cc2)C1 = 325
• CN(C)CCOc1ccc(-c2ccc(Cl)cc2)c(CN2CCN(c3ccc(C(=O)NS(=O)(=O)c4ccc(NC5CCN(CC(F)(F)F)CC5)c([N+](=O)[O-])c4)c(Oc4ccccc4)c3)CC2)c1 = 16
• CC1(C)CCC(CN2CCN(c3ccc(C(=O)NS(=O)(=O)c4ccc(NCCCN5CCOCC5)c([N+](=O)[O-])c4)c(Oc4ccc5[nH]ncc5c4)c3)CC2)=C(c2ccc(Cl)cc2)C1 = 77.6

* * *

systemUnderTest: GST-Bcl-2 (Homo sapiens)
protocolNotes: TR-FRET binding assay, GST-Bcl-2 with F-Bak peptide probe
measurementConditions: TR-FRET Binding Affinity, GST-Bcl-2, F-Bak peptide probe
Note to self: Ki under 2000 pM means true (1), ties and anything higher get false (0).

- CNc1ccc(S(=O)(=O)NC(=O)c2ccc(N3CCN(CC4=C(c5ccc(Cl)cc5)CC(C)(C)CC4)CC3)cc2Oc2ccc3[nH]ccc3c2)cc1[N+](=O)[O-] [Example 245]: true (1)
- CC1(C)CCC(c2ccc(Cl)cc2)=C(CN2CCN(c3ccc(C(=O)NS(=O)(=O)c4ccc(NCCCN5CCOCC5)c([N+](=O)[O-])c4)c(Oc4ccccc4)c3)CC2)C1 [Example 19]: true (1)
- CN1CCC(Nc2ccc(S(=O)(=O)NC(=O)c3ccc(N4CCN(CC5=C(c6ccc(Cl)cc6)CCCC5)CC4)cc3Oc3ccc4[nH]ccc4c3)cc2[N+](=O)[O-])CC1 [Example 75]: true (1)
- CC(C)N(C)CCCNc1ccc(S(=O)(=O)NC(=O)c2ccc(N3CCN(Cc4ccccc4-c4ccc(Cl)cc4)CC3)cc2Oc2ccccc2)cc1[N+](=O)[O-] [Example 93]: true (1)
- CN1CCC(Nc2ccc(S(=O)(=O)NC(=O)c3ccc(N4CCN(CC5=C(c6ccc(Cl)cc6)CC(C)(C)CC5)CC4)cc3Oc3ccc4[nH]ncc4c3)cc2[N+](=O)[O-])CC1 [Example 21]: false (0)
- CN(C)CCCNc1ccc(S(=O)(=O)NC(=O)c2ccc(N3CCN(Cc4ccccc4-c4ccc(Cl)cc4)CC3)cc2Oc2ccc3cc[nH]c3c2)cc1[N+](=O)[O-] [Example 47]: false (0)
- O=C(NS(=O)(=O)c1ccc(NCC2CCOCC2)c([N+](=O)[O-])c1)c1ccc(N2CCN(Cc3ccccc3-c3ccc(Cl)cc3)CC2)cc1Oc1ccc2[nH]ccc2c1 [Example 40]: true (1)
- CC1(C)CCC(CN2CCN(c3ccc(C(=O)NS(=O)(=O)c4cnc(OCC5CCOCC5)c(-c5nccs5)c4)c(Oc4ccc5[nH]ccc5c4)c3)CC2)=C(c2ccc(Cl)cc2)C1 [Example 331]: false (0)
- CC1(C)CCC(CN2CCN(c3ccc(C(=O)NS(=O)(=O)c4ccc(NCCCN5CCCC5)c([N+](=O)[O-])c4)c(Oc4cccc5[nH]ccc45)c3)CC2)=C(c2ccc(F)cc2)C1 [Example 73]: true (1)
- CN(C)CCCNc1ccc(S(=O)(=O)NC(=O)c2ccc(N3CCN(CC4=C(c5ccc(Cl)cc5)CC(C)(C)CC4)CC3)cc2Oc2ccc3[nH]ccc3c2)cc1S(=O)(=O)C(F)(F)F [Example 170]: true (1)
- CN1CCC(Nc2ccc(S(=O)(=O)NC(=O)c3ccc(N4CCN(Cc5ccccc5-c5ccc(Cl)cc5)CC4)cc3Oc3ccccc3)cc2[N+](=O)[O-])CC1 [Example 89]: true (1)
- CC1(C)CCC(CN2CCN(c3ccc(C(=O)NS(=O)(=O)c4cnc(OCC5CCOCC5)c(Br)c4)c(Oc4cccc5[nH]ccc45)c3)CC2)=C(c2ccc(Cl)cc2)C1 [Example 364]: true (1)
- CN1CCC(Nc2ccc(S(=O)(=O)NC(=O)c3ccc(N4CCN(CC5=C(c6ccc(Cl)cc6)CCC5)CC4)cc3Oc3cccc4[nH]ccc34)cc2[N+](=O)[O-])CC1 [Example 148]: false (0)
- CC1(C)CCC(CN2CCN(c3ccc(C(=O)NS(=O)(=O)c4ccc(NCCN5CCOCC5)c(S(=O)(=O)C(F)(F)F)c4)c(Oc4ccc5[nH]ccc5c4)c3)CC2)=C(c2ccc(Cl)cc2)C1 [Example 351]: true (1)
- O=C(NS(=O)(=O)c1ccc(NCC2CCOCC2)c([N+](=O)[O-])c1)c1ccc(N2CCN(Cc3c(OCCN4CCOCC4)cccc3-c3ccc(Cl)cc3)CC2)cc1Oc1cccc2[nH]ccc12 [Example 131]: true (1)
- O=C(NS(=O)(=O)c1ccc(NC2CCN(S(=O)(=O)c3cccc4cccnc34)CC2)c([N+](=O)[O-])c1)c1ccc(N2CCN(Cc3ccccc3-c3ccc(Cl)cc3)CC2)cc1Oc1ccccc1 [Example 158]: false (0)
- CC(c1ccccc1-c1ccc(Cl)cc1)N1CCN(c2ccc(C(=O)NS(=O)(=O)c3ccc(NN4CCN(C)CC4)c([N+](=O)[O-])c3)c(Oc3cccc4[nH]ccc34)c2)CC1 (centres unmarked) [Example 217]: true (1)
- CN1CCN(CCNc2ccc(S(=O)(=O)NC(=O)c3ccc(N4CCN(Cc5ccccc5-c5ccc(Cl)cc5)CC4)cc3Oc3ccccc3)cc2[N+](=O)[O-])CC1 [Example 85]: true (1)
- CN1CCC(Nc2ccc(S(=O)(=O)NC(=O)c3ccc(N4CCN(CC5=C(c6ccc(Cl)cc6)CC(C)(C)OC5)CC4)cc3Oc3cccc4[nH]ccc34)cc2[N+](=O)[O-])CC1 [Example 145]: true (1)
- CC1(C)CCC(CN2CCN(c3ccc(C(=O)NS(=O)(=O)c4ccc(NCCCN5CCCC5)c([N+](=O)[O-])c4)c(Oc4cccc5[nH]ccc45)c3)CC2)=C(c2ccc(Cl)cc2)C1 [Example 102]: true (1)
